# subject of test: 5-HT1E (Homo sapiens)
# Construct: expressed in transfected cells; host or cells: transfected Ltk- cells (by analogy 'as described supra')
# Sequence (P28566 whole entry, species assumed): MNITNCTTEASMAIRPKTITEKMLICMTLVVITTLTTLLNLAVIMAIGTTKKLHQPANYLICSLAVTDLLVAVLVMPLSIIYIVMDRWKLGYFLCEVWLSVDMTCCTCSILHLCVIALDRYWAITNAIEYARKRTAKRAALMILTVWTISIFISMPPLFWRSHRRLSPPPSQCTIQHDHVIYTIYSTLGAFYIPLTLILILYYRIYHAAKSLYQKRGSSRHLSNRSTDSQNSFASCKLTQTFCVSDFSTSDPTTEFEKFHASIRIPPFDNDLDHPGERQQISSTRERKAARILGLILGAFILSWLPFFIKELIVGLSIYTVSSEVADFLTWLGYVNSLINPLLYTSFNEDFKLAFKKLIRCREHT
# protocol notes: Radioligand binding ([3H]5-HT displacement) to cloned 5-HT1E receptor
# cond: read-out: BINDING TO SEROTONIN (5-HT1) RECEPTOR SUBTYPES (Ki-nM) 5-HT1E, 4.5-5.5 nM [3H]5-HT, 37°C, Ki from IC50 by Cheng-Prusoff
assay readout: Ki

*Q* Given `CNS(=O)(=O)Cc1ccc2[nH]cc(CCN(C)C)c2c1.O=C(O)CCC(=O)O` , respond with its Ki.
*A* 2520 nM
